FYI, the data here is from patent US20210403579A1.

Target: T1, Human ST2 (human, UniProt Q01638 19-328, limits assumed)
T1 construct: also called human ST2 protein; Interleukin 1 receptor-like 1
T1 sequence (looked up): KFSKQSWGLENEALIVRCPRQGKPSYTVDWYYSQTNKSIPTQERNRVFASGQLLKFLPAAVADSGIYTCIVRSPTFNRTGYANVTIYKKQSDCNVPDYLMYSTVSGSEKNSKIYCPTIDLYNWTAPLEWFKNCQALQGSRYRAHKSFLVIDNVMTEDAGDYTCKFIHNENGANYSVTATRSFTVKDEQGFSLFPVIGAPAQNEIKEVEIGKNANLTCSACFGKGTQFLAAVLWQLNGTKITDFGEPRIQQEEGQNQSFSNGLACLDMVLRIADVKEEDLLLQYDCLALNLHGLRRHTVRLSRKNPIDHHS
Test: SPR (Carterra), antibody immobilized, ST2 analyte, 1:1
readout_name: kon (M⁻¹ s⁻¹)
Express your answer in M⁻¹ s⁻¹, writing the number without its unit.

Q: Tell me the measured kon of Human ST2 IgG1 Antibody 108 (antibody, V domains shown, IgG1, kappa; also called ST2 Antibody 108) VH: QVQLVQSGAEVKKPGASVKVSCKASGNTFTAYYMHWVRQAPGQGLEWMGIINPSGGSTSYAQKFQGRVTMTRDTSTSTVYMELSSLRSEDTAVYYCARGVGATNYWGQGTLVTVSS VL: DIQMTQSPSSLSASVGDRVTITCRASQGISNNLNWYQQKPGKAPKLLIYAASSLQSGVPSRFSGSGSGTDFTLTISSLQPEDFATYYCQQGFNFPLTFGGGTKVEIKR , please.
Result: 200000
